Test system: human foreskin fibroblasts (HFF)
method-description: HFF cytotoxicity assessment
Type: cell-based
Provide the reported Concentration up to which viability of uninfected HFF was not impaired of each item.

> print(dat)
                      smiles.representation                 target.under.test  result.value
1  CCCCCCCCCCOc1cc2c(OC(=O)N3CCN(S(C)(=O)=O)C3=O)c(C(=O)OCC)cnc2cc1OCC  human foreskin fibroblasts (HFF)         10 µM

Fill in Concentration up to which viability of uninfected HFF was not impaired for each of the 3 compounds listed.
1. CCCCCCCCCCOc1cc2c(OC(=O)N3CCN(S(C)(=O)=O)C3=O)c(C(=O)OCCOC)cnc2cc1OCC
2. CCCCCCCCCCOc1cc2c(O)c(C(=O)OCC)cnc2cc1OCC
3. CCCCCCCCCCOc1cc2c(OC(=O)N3CCN(CC)C(=O)C3=O)c(C(=O)OCCOC)cnc2cc1OCC

Result:
10 µM
5 µM
5 µM
